# pKi per entry
Target chain: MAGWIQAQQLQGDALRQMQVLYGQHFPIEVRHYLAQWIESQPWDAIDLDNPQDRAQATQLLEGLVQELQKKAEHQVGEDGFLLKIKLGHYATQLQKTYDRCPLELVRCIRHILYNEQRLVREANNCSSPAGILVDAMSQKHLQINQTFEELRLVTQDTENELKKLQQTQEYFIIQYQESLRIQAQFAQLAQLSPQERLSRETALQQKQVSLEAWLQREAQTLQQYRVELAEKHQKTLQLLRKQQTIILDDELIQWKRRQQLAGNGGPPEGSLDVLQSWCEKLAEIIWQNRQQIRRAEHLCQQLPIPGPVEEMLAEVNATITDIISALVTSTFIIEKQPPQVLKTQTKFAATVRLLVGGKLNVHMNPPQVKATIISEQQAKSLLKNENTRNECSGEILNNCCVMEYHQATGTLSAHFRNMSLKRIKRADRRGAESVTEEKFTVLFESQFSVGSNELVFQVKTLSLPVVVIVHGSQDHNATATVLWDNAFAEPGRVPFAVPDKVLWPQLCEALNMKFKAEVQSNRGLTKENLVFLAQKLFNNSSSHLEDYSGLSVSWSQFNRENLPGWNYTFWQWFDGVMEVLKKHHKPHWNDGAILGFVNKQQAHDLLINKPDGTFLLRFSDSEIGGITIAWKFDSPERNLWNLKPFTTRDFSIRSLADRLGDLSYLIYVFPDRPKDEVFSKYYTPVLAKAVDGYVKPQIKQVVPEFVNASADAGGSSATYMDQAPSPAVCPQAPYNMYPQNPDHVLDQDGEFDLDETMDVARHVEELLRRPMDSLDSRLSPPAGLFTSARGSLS
pKi: −log10 of the molar value.

Asked: Requested field: pKi. Item: CC(C)(C)[C@H](NC(=O)c1cc2cc(C(F)(F)P(=O)(O)O)ccc2s1)C(=O)N1CCC[C@H]1C(=O)N(c1ccccc1)c1ccc(I)cc1 [Compound 39]
Given back: 5.00 to 6.00

Asked: Reported pKi, molecule CC(C)(C)[C@H](NC(=O)c1cc2cc(C(F)(F)P(=O)(O)O)ccc2s1)C(=O)N1CCC[C@H]1C(=O)N1CCC2(CCCCCC2)C1 [Compound 62] : ____
Given back: < 5.00

Asked: What value of pKi has been reported for the following molecule? CC(C)(C)[C@H](NC(=O)c1cc2cc(C(F)(F)P(=O)(O)O)ccc2s1)C(=O)N1CCCCC[C@H]1C(=O)Nc1ccc(-c2ccccc2)s1 [Compound 306]
Given back: 5.00 to 6.00

###

# pKi values compiled below
Target sequence: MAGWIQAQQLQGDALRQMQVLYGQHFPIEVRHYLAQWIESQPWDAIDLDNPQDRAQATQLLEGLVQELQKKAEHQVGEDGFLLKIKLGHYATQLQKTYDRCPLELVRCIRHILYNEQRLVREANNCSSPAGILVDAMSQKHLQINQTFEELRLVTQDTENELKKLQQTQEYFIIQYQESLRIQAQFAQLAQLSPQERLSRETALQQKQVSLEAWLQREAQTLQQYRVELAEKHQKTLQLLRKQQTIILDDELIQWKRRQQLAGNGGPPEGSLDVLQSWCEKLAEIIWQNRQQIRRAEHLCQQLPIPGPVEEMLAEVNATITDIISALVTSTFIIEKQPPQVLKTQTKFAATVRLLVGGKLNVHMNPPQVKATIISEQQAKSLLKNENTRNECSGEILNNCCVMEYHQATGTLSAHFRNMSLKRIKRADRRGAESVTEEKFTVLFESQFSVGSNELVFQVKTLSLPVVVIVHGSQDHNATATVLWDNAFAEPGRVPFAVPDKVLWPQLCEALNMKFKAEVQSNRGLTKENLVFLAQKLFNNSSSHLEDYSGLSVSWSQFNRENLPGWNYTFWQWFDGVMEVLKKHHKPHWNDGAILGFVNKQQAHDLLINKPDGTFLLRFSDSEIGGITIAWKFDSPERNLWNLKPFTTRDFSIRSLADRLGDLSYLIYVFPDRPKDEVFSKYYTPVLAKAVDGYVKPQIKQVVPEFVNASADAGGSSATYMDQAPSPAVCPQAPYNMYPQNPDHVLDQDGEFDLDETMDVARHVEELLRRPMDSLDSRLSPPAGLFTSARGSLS
pKi: −log10 of the molar value.

COMPOUND: CC(=O)N1CC[C@H]2CC[C@@H](C(=O)N3CCOC(C)(c4ccc(F)cc4)C3)N2C(=O)[C@@H](NC(=O)c2cc3cc(C(F)(F)P(=O)(O)O)ccc3s2)C1 (some centres unmarked)
pKi: < 5.00
--
COMPOUND: CC(C)(C)[C@H](NC(=O)c1cc2cc(C(F)(F)P(=O)(O)O)ccc2s1)C(=O)N1CCC[C@H]1C(=O)N1CCC(O)C(c2ccccc2)C1 (some centres unmarked)
pKi: < 5.00
--
COMPOUND: CC(C)(C)[C@H](NC(=O)c1cc2cc(C(F)(F)P(=O)(O)O)ccc2s1)C(=O)N1CCC[C@H]1C(=O)N1CC[C@H]2CCN(C(=O)c3ccc(F)cc3)[C@H]2C1
pKi: < 5.00
--
COMPOUND: CC(C)(C)[C@H](NC(=O)c1cc2cc(C(F)(F)P(=O)(O)O)ccc2s1)C(=O)N1CCCCC[C@H]1C(=O)N1CCO[C@H](c2ccccc2)C1
pKi: 5.00 to 6.00

Moving on to the next compound.
Asked: So what does the record say about pKi for `CC(C)(C)[C@H](NC(=O)c1cc2cc(C(F)(F)P(=O)(O)O)ccc2s1)C(=O)N1CCC[C@H]1C(=O)N1CC[C@H]2CCN[C@H]2C1` ?
Given back: < 5.00

Where these numbers come from: patent US20230295200A1
